Provenance of the data: PubChem BioAssay AID248

system: L1210 leukemia ip in BDF1 mice, survival T/C; test: NCI In Vivo Anticancer Drug Screen. Data for tumor model L1210 Leukemia (intraperitoneal) in B6D2F1 (BDF1) mice; details: endpoint: mean survival time; dose: 100.0 mg/kg/injection; schedule: Q04DX003 (ip); vehicle: saline; higher = longer survival
Inconclusive results and toxic doses are left out.
Catalogue of molecules with associated T/C

- molecule: "O=C(O)c1ccccc1Oc1ccccc1C(=O)O"
  assay.target: "L1210 leukemia ip in BDF1 mice, survival T/C"
  T/C: "102 % of control"
- molecule: "Cc1ccccc1-n1nnnc1N"
  assay.target: "L1210 leukemia ip in BDF1 mice, survival T/C"
  T/C: "102 % of control"
- molecule: "NC(c1ccccc1)c1ccccc1"
  assay.target: "L1210 leukemia ip in BDF1 mice, survival T/C"
  T/C: "104 % of control"
- molecule: "O=C(O)C1CCN1Cc1ccccc1 (centres undefined)"
  assay.target: "L1210 leukemia ip in BDF1 mice, survival T/C"
  T/C: "98 % of control"
- molecule: "CCN(CC)C(=O)C1C2CCC(C2)C1C(=O)N(CC)CC (centres undefined)"
  assay.target: "L1210 leukemia ip in BDF1 mice, survival T/C"
  T/C: "100 % of control"
- molecule: "CC1(C)OC(=O)CC(=O)O1"
  assay.target: "L1210 leukemia ip in BDF1 mice, survival T/C"
  T/C: "91 % of control"
- molecule: "CC(=O)N(C)N"
  assay.target: "L1210 leukemia ip in BDF1 mice, survival T/C"
  T/C: "108 % of control"
- molecule: "CCOC(=O)NC(=O)n1ncnc1N"
  assay.target: "L1210 leukemia ip in BDF1 mice, survival T/C"
  T/C: "108 % of control"
- molecule: "O=C(O)C1CC=CCC1c1c2ccc(=O)cc-2oc2cc(O)ccc12 (centres undefined)"
  assay.target: "L1210 leukemia ip in BDF1 mice, survival T/C"
  T/C: "98 % of control"
- molecule: "Cn1c(=O)oc2ccccc2c1=S"
  assay.target: "L1210 leukemia ip in BDF1 mice, survival T/C"
  T/C: "96 % of control"
- molecule: "NN1CCCCCC1"
  assay.target: "L1210 leukemia ip in BDF1 mice, survival T/C"
  T/C: "102 % of control"
- molecule: "CC(C)(C)OC(=O)C1=CNCCC1"
  assay.target: "L1210 leukemia ip in BDF1 mice, survival T/C"
  T/C: "106 % of control"
- molecule: "OCC1CCCN2CCCCC12 (centres undefined)"
  assay.target: "L1210 leukemia ip in BDF1 mice, survival T/C"
  T/C: "98 % of control"
- molecule: "O=C(COc1ccc(Cl)c(Cl)c1)Nc1ccc[n+](Cc2ccc([N+](=O)[O-])cc2)c1"
  assay.target: "L1210 leukemia ip in BDF1 mice, survival T/C"
  T/C: "95 % of control"

###

test system: L1210 leukemia ip in BDF1 mice, survival T/C; assay: NCI In Vivo Anticancer Drug Screen. Data for tumor model L1210 Leukemia (intraperitoneal) in B6D2F1 (BDF1) mice; conditions: endpoint: mean survival time; dose: 5.0 mg/kg/injection; schedule: Q01DX001 (ip); vehicle: saline; higher = longer survival
Inconclusive results and toxic doses are left out.
outcome.measure: T/C

- compound: "CC(C)c1cccc(OC(=O)N(C)[Si](C)(C)C)c1"
  outcome.measure: "T/C"
  result: "105 % of control"
- compound: "CCC[CH2][Sn]1([CH2]CCC)[O]CC[S]1"
  outcome.measure: "T/C"
  result: "111 % of control"
- compound: "CCCCCC(C)N (stereo not given)"
  outcome.measure: "T/C"
  result: "101 % of control"
- compound: "CC1OC(O[C@@H]2C=C3CC[C@@H]4[C@H](CC[C@]5(C)[C@@H](c6ccc(=O)oc6)CC[C@]45O)[C@@]3(C)CC2)C(O)C(OC2OC(CO)C(O)C(O)C2O)C1O (stereo not given in full)"
  outcome.measure: "T/C"
  result: "95 % of control"
- compound: "CC(=O)NC1=C(N2CC2C)C(=O)C(NC(C)=O)=C(N2CC2C)C1=O (stereo not given)"
  outcome.measure: "T/C"
  result: "118 % of control"

###

tested on: L1210 leukemia ip in BDF1 mice, survival T/C; experiment: NCI In Vivo Anticancer Drug Screen. Data for tumor model L1210 Leukemia (intraperitoneal) in B6D2F1 (BDF1) mice; conditions: endpoint: mean survival time; dose: 30.0 mg/kg/injection; schedule: Q01DX Z (ip); vehicle: carboxymethylcellulose (CMC); higher = longer survival
Inconclusive results and toxic doses are left out.

- chem.smiles: "CCCCCCC(/C=N/N=C(N)N)=N\\N=C(N)N"
  assay.target: "L1210 leukemia ip in BDF1 mice, survival T/C"
  T/C: "95 % of control"
- chem.smiles: "ClCCN(CCCl)CCn1cnc2c(SCc3ccccc3)ncnc21"
  assay.target: "L1210 leukemia ip in BDF1 mice, survival T/C"
  T/C: "105 % of control"
- chem.smiles: "CC(=N/NC(N)=S)/C(C)=N/NC(N)=S"
  assay.target: "L1210 leukemia ip in BDF1 mice, survival T/C"
  T/C: "97 % of control"
- chem.smiles: "O=C(Nc1cccc(C2=NCCN2)c1)c1ccc2ccc(C(=O)Nc3cccc(C4=NCCN4)c3)cc2c1"
  assay.target: "L1210 leukemia ip in BDF1 mice, survival T/C"
  T/C: "102 % of control"
- chem.smiles: "CC1=NN(c2ccc(S(=O)(=O)O)cc2)/C(=N/N=C(N)N)C1"
  assay.target: "L1210 leukemia ip in BDF1 mice, survival T/C"
  T/C: "96 % of control"

###

system: L1210 leukemia ip in BDF1 mice, survival T/C; experiment: NCI In Vivo Anticancer Drug Screen. Data for tumor model L1210 Leukemia (intraperitoneal) in B6D2F1 (BDF1) mice; conditions: endpoint: mean survival time; dose: 200.0 mg/kg/injection; schedule: Q01DX009 (ip); vehicle: saline; higher = longer survival
Inconclusive results and toxic doses are left out.

- compound: "CC(=O)Nc1ccc(/C=N\\N=C\\c2ccc(NC(C)=O)cc2)cc1"
  T/C: "86 % of control"
- compound: "CSc1cccc(NC(C)=O)c1"
  T/C: "113 % of control"
- compound: "Cc1cc(Cl)cc(C)c1OC(=O)Nc1ccccc1C(F)(F)F"
  T/C: "91 % of control"
- compound: "C[N+]1(C)C2CC(=O)CC1C1CC12 (stereo unspecified) (tested in a mixture with another compound)"
  T/C: "90 % of control"
- compound: "C/C(=N/N(C)C)c1ccc([N+](=O)[O-])cc1"
  T/C: "89 % of control"
- compound: "O/N=C(/Cc1ccccc1)CC(O)(C(F)(F)F)C(F)(F)F"
  T/C: "102 % of control"
- compound: "C[n+]1cccc(O)c1"
  T/C: "93 % of control"
- compound: "CC(C)CCCC(C)CCO (stereo unspecified)"
  T/C: "103 % of control"
- compound: "CCOC(=O)C(=CN1CCCC1)C(=O)OCC"
  T/C: "109 % of control"
- compound: "c1ccc(P2(c3ccccc3)=NP(c3ccccc3)(c3ccccc3)=NP(c3ccccc3)(c3ccccc3)=N2)cc1"
  T/C: "88 % of control"
- compound: "O=S(=O)(Cc1ccccc1)C1CCCC1"
  T/C: "110 % of control"
- compound: "CCCSc1nc(N)nc2nc[nH]c12"
  T/C: "90 % of control"
- compound: "CC(C)(C)N1CCC1C(=O)NN (stereo unspecified)"
  T/C: "93 % of control"
- compound: "CCOC(=O)C(CO)(CO)C(=O)OCC"
  T/C: "92 % of control"
- compound: "NC(CCC(=O)NC(CSC(c1ccccc1)(c1ccccc1)c1ccccc1)C(=O)NCC(=O)O)C(=O)O (stereo unspecified)"
  T/C: "124 % of control"
- compound: "CC(=O)OCC(=O)C1CCC=CC1OC(C)=O (stereo unspecified)"
  T/C: "105 % of control"
- compound: "Nc1ccc(CCC(=O)NC(CCC(=O)O)C(=O)O)cc1 (stereo unspecified)"
  T/C: "108 % of control"
- compound: "COc1ccc(CCNC(=S)NCCc2ccc(OC)c(OC)c2)cc1OC"
  T/C: "92 % of control"
- compound: "COC(=O)c1cc(Cl)cc(C(=O)OC)n1"
  T/C: "94 % of control"
- compound: "CCCCOB(OCCCC)Oc1c(C(C)(C)C)cccc1C(C)(C)C"
  T/C: "93 % of control"
- compound: "CCOC(=O)/C=C/c1c[nH]c(=O)[nH]c1=O"
  T/C: "111 % of control"
- compound: "CCCN(CCC)CC(C)=O"
  T/C: "101 % of control"
- compound: "CC1(C)C(C)(C)C1(Cl)Cl"
  T/C: "100 % of control"
- compound: "CC1(O)CCC2C3CCC4CC(=O)CCC4(C)C3(F)C(O)CC21C (stereo unspecified)"
  T/C: "102 % of control"
- compound: "CC(=O)[C@H]1CC[C@H]2[C@@H]3C[C@H](C)C4=CC(=O)CC[C@]4(C)[C@H]3[C@@H](O)C[C@]12C"
  T/C: "102 % of control"
- compound: "C/C=C1/C(=O)Oc2ccccc21"
  T/C: "94 % of control"
